Origin of measurements: ChEMBL document CHEMBL6078677

# reported viability at 48 h, 1 time of MIC; entries follow
Assay: Cytotoxicity against human HEp-2 cells assessed as cell viability at 1 time of MIC incubated for 48 hrs by CCK8 assay (reference value: 100 %)
Assay type: toxicity, cell-based
Conditions: read-out: Activity
Endpoint name: viability at 48 h, 1 time of MIC (%)

[[record]]
molecule = "COc1ccc2nc3c(c(C(=O)O)c2c1)CC(C)C/C3=C\\c1cccc(-c2ccc(Cl)c(C(F)(F)F)c2)c1 (racemic)"
quantitative_result = 89.8

[[record]]
molecule = "CC1C/C(=C\\c2ccc(-c3ccc(Cl)c(C(F)(F)F)c3)s2)c2nc3ccccc3c(C(=O)O)c2C1 (racemic)"
quantitative_result = 96.9

[[record]]
molecule = "CCCCCCc1ccc(-c2ccc(/C=C3\\CC(C)Cc4c3nc3ccc(OC)cc3c4C(=O)O)cn2)cc1 (racemic)"
quantitative_result = 101

